# credit: patent US8901087B2

Target: human O-GlcNAcase (Homo sapiens (Human), UniProt O60502)
Sequence (O60502 whole entry): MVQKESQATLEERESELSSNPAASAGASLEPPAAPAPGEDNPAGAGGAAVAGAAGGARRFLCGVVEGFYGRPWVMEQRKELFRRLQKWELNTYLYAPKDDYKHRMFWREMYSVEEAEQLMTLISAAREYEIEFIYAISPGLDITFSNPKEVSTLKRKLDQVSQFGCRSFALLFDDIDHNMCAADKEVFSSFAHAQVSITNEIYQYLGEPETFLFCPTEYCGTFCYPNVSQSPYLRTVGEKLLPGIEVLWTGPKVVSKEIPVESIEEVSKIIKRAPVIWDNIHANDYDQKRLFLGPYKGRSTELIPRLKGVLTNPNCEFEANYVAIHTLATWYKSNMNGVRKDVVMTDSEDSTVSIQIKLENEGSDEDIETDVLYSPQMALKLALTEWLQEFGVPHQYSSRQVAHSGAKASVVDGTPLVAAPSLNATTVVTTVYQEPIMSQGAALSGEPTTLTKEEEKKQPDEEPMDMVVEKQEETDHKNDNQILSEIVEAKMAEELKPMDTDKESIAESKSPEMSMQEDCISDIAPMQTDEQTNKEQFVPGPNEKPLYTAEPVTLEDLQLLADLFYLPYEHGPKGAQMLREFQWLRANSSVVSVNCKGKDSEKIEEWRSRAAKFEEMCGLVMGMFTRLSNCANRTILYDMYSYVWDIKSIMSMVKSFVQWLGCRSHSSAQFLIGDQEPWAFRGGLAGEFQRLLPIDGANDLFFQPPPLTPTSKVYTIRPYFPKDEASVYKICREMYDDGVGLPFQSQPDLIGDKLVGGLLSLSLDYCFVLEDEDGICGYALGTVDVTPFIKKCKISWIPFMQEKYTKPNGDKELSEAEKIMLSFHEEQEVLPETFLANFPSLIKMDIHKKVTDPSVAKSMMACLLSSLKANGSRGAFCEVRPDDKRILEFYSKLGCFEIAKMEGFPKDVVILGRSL
Test: Fluorescence-based assay for determination of KI values for inhibition of O-GlcNAcase activity
Format: biochemical
Conditions: purified human O-GlcNAcase, 4-Methylumbelliferyl N-acetyl-β-D-glucosaminide substrate, pH 7.0, Cheng-Prusoff; read-out: Fluorescence-based hOGA Ki
Procedure: Assay for Determination of KI Values for Inhibition of O-GlcNAcase Activity Experimental Procedure for Kinetic Analyses Enzymatic reactions are carried out in a reaction containing 50 mM NaH2PO4, 100 mM NaCl and 0.1% BSA (pH 7.0) using 2 mM 4-Methylumbelliferyl N-acetyl-β-D-glucosaminide dihydrate (Sigma M2133) dissolved in ddH2O, as a substrate. […] The values for a four parameter logistic curve fit of the data are determined.
Quick list: pKi per entry.
# reply with the number alone; pKi is -log10 of concentration in mol/L

[
  {
    "compound": "CCCNC1=N[C@@H]2[C@@H](O)[C@H](O)[C@@H]([C@@H](O)C(F)(F)F)O[C@@H]2S1 [Example 97]",
    "metric.name": "pKi",
    "observed.result": 9.77
  },
  {
    "compound": "C=CC[C@H](O)[C@H]1O[C@@H]2SC(N(C)C)=N[C@@H]2[C@@H](O)[C@@H]1O (single isomer, unassigned) [Example 67]",
    "metric.name": "pKi",
    "observed.result": 8.90
  }
]

Lookup result for C=C[C@H](O)[C@H]1O[C@@H]2SC(N3CCC3)=N[C@@H]2[C@@H](O)[C@@H]1O (single isomer, unassigned) [Example 80] ; measured pKi: 9.30
